system: UniProt:P19490
Sequence (P19490 19-907): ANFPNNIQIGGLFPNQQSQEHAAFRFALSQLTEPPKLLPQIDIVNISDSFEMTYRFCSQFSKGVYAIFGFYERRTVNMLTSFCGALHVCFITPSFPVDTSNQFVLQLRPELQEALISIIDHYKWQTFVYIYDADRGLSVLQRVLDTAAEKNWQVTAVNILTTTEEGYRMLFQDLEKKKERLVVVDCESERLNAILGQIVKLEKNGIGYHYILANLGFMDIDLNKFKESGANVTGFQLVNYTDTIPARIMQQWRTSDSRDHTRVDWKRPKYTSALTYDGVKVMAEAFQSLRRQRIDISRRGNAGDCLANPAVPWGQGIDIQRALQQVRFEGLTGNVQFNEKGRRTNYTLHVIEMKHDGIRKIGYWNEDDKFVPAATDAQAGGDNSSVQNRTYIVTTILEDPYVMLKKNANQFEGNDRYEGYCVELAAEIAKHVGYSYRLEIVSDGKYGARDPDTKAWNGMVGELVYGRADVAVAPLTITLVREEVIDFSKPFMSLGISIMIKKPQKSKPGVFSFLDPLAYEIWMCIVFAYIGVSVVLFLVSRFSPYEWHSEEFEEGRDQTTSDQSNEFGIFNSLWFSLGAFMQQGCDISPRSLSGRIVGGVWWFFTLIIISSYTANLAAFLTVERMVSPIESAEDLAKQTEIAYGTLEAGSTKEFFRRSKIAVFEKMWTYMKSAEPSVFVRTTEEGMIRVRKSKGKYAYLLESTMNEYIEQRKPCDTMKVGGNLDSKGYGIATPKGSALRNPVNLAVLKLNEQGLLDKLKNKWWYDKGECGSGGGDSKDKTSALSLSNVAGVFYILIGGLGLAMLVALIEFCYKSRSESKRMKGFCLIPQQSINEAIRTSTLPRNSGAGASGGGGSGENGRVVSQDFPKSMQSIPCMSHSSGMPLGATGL
assay.details: whole-cell patch clamp in HEK-293 cells, -60 mV
measured.metric: pIC50
Conceptually, pIC50 converts a concentration in mol/L into minus its log10.

Incoming: # query: pIC50 of entry CC12CC3CC(C)(C1)CC(N)(C3)C2 [memantine]
Outgoing: 5.00
